The reported numbers originate from patent US12606554B2.

molecular target: SIK2 (Homo sapiens)
Sequence (Q9H0K1 whole entry): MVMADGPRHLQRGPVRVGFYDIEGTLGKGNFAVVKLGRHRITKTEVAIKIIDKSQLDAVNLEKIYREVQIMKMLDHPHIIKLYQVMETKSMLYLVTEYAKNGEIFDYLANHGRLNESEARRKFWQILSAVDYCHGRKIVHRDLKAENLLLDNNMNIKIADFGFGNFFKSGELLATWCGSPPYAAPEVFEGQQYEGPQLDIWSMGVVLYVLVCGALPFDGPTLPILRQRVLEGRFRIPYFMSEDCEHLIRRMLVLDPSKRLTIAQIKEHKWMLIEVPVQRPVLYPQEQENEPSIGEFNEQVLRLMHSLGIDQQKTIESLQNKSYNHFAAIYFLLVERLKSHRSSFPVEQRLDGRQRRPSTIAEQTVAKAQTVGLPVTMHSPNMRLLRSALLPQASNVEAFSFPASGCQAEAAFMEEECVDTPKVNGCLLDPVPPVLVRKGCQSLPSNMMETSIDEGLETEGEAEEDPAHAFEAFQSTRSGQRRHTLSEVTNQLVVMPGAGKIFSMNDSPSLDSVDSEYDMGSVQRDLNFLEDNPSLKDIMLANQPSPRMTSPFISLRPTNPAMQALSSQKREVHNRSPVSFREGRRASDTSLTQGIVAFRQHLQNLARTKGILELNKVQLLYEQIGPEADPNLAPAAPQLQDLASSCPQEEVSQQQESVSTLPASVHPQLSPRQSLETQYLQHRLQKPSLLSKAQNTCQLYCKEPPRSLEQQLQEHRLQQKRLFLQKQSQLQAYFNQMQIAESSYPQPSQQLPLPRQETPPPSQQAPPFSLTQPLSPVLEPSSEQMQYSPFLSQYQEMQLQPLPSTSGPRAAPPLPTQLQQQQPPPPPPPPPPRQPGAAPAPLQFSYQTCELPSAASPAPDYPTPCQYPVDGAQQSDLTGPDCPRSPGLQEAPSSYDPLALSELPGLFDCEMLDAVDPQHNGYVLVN
Attribute: IC50

COc1cc(-c2cnc3cc(OCCN4CCOCC4)cnn23)cc2c1C(=O)N(CC(F)(F)F)CC2
10 to 100 nM

Next compound, please.
I'd like to know its IC50. The compound in question is `COc1cc(-c2cnn3cc(OC(C)(C)CN4CC5(COC5)C4)ccc23)cc(OC(F)F)c1C(=O)N[C@@H]1C[C@@H]1F`
10 to 100 nM

---

IC50, SIK1 (Homo sapiens): measured values

COc1cc(-c2cnn3cc(OCCN4CCOCC4)ccc23)cc2c1C(=O)N(CC(F)(F)F)CC2
100 to 500 nM

Next compound, please.
I'd like to know its IC50. The compound in question is `COc1cc(-c2cnc3cc(OCCN4CCOCC4)cnn23)cc2c1C(=O)N(CC(F)(F)F)CC2`
> 500 nM
